test description: Liquid chromatography, % hydrolyzed in buffer
Format: physicochemical
details: 2 hours; pH 6 buffer; 1 mg./ml.
property name: degraded at 2 h (%)

- Cc1nnc(SCC2=C(C(=O)O)N3C(=O)C(N4C(=O)[C@@H](c5ccc(O)cc5)NC4c4ccc(S(=O)(=O)O)o4)C3SC2)s1 (stereo partly shown): 59

###

test description: Liquid chromatography, % hydrolyzed in buffer
Assay type: physicochemical
details: within 1 hour; pH 6.1 buffer; room temperature; 1 mg./ml.
property name: degraded at 1 h (%)

* Cc1nnc(SCC2=C(C(=O)O)N3C(=O)C(N4C(=O)[C@@H](c5ccc(O)cc5)NC4c4ccco4)C3SC2)s1 (stereo partly shown) | 100

###

test description: Solubility in water
Assay type: physicochemical
property name: solubility

* Cc1nnc(SCC2=C(C(=O)O)N3C(=O)C(N4C(=O)[C@@H](c5ccc(O)cc5)NC4c4ccco4)C3SC2)s1 (stereo partly shown) | > 400 mg/mL

###

test description: Liquid chromatography, % hydrolyzed in buffer
Type: physicochemical
details: 1 hour; pH 6 buffer; 1 mg./ml.
property name: degraded at 1 h (%)

• Cc1nnc(SCC2=C(C(=O)O)N3C(=O)C(N4C(=O)[C@@H](c5ccc(O)cc5)NC4c4ccc(S(=O)(=O)O)o4)C3SC2)s1 (stereo partly shown) [BL-S1058] = 46.5
